Catalogue of GI50 readings, one per entry.
Tested on: RPMI-8226
METHOD NOTES: NCI tumour cell line growth inhibition, 48 h
The source made the active and inactive calls. No stated cut-off is given here; in the data, active = GI50 up to about 1.1 µM and inactive = higher.

COc1cc(C2SCC(=O)N2NC(=O)c2ccc(NC(C)=O)cc2OC)ccc1O (stereo unspecified): 0.883 µM (active)
Cc1cccc(/C=N/NC(=S)N2CCCCCC2)n1: < 0.01 µM (active)
Cc1ccc(OCC2OC(n3cnc4c(Cl)nc(N)nc43)CC2Oc2ccc(C)cc2)cc1 (stereo unspecified): 33 µM (inactive)
COc1ccc(C=C2C(=O)NC(=S)NC2=O)c2ccccc12: 34.5 µM (inactive)
COc1cc(C2c3cc4c(cc3C3OC[C@@H]2C3CO)OCO4)cc(OC)c1OC (stereo partly specified): 38.6 µM (inactive)
Cc1ccc(C2CC(c3cccc([N+](=O)[O-])c3)=Nc3ccccc3S2)cc1 (stereo unspecified): 7.83 µM (inactive)
O=[N+]([O-])c1ccc(Cl)c(C2CC(c3cccc4ccccc34)=Nc3ccccc3S2)c1 (stereo unspecified): 2.6 µM (inactive)
O=C1Nc2ccc(Cl)cc2/C1=C\c1c(Cl)nc2sccn12: 0.0514 µM (active)
O=C(/C=C/c1ccc(Cl)c(Cl)c1)c1ccc2ccccc2c1: > 100 µM (inactive)
Cc1cc([N+](=O)[O-])c(C)c2c1[nH]c1ccc(O)cc12: 11.1 µM (inactive)

Next up:
Entry `Cc1nc(SCC(=O)Nc2ccc(Cl)cc2)c2sc(=S)n(-c3ccccc3)c2n1` : reported GI50 = ?
> 10 µM (inactive)
